Hello, the source for this data is paper PMC10287566, in case you need it.

experiment: Plasma and brain pharmacokinetics/toxicokinetics in rats; type: in vivo; conditions: both sexes, Sprague Dawley SPF, rat, plasma, po, 20 mg/kg, rats po 20 mg/kg single, 91-day tox study; read-out: t½ (converted)
ATTRIBUTE MEASURED: half-life (h)
Give just the number in h; leave the unit off.

What half-life value was documented for this compound, COc1ccc(CO[C@H]2CC[C@@]3(C)C(=CC[C@H]4[C@@H]5CC[C@H](C(C)=O)[C@@]5(C)CC[C@@H]43)C2)cc1 ? 7.6

---

assay: MAD study, plasma pharmacokinetics; assay type: in vivo, human; details: human, plasma, oral, 0.6 mg/day, MAD Day 7, 0.6 mg/day, 0-264 h; read-out: t½, min-max
ATTRIBUTE MEASURED: half-life

What half-life value was documented for this molecule, COc1ccc(CO[C@H]2CC[C@@]3(C)C(=CC[C@H]4[C@@H]5CC[C@H](C(C)=O)[C@@]5(C)CC[C@@H]43)C2)cc1 [AEF0117, 3β-(4-methoxybenzyloxy)pregn-5-en-20-one] ? 153 to 252 h

---

assay: Plasma and brain pharmacokinetics of oral AEF0117 in mice; assay type: in vivo; conditions: both sexes, CD-1 Swiss, mouse, plasma; mice po 0.3 mg/kg single; read-out: t½ (converted)
ATTRIBUTE MEASURED: half-life (min)
Give just the number in min; leave the unit off.

What half-life value was documented for this compound, COc1ccc(CO[C@H]2CC[C@@]3(C)C(=CC[C@H]4[C@@H]5CC[C@H](C(C)=O)[C@@]5(C)CC[C@@H]43)C2)cc1 [AEF0117, 3β-(4-methoxybenzyloxy)pregn-5-en-20-one] ? 1070

---

experiment: Plasma pharmacokinetics/toxicokinetics in dogs (oral and i.v.); assay type: in vivo; conditions: both sexes, Beagle, dog, po, 0.7 mg/kg, dogs, ratio of AUC per os and i.v.
ATTRIBUTE MEASURED: bioavailability (%)
Give just the number in %; leave the unit off.

What bioavailability value was documented for this compound, COc1ccc(CO[C@H]2CC[C@@]3(C)C(=CC[C@H]4[C@@H]5CC[C@H](C(C)=O)[C@@]5(C)CC[C@@H]43)C2)cc1 ? 68

---

assay: MAD study, plasma pharmacokinetics; type: in vivo, human; conditions: human, plasma, oral, 0.6 mg/day, MAD Day 1, 0.6 mg/day; read-out: Cmax, mean (±SD)
ATTRIBUTE MEASURED: Cmax (ng/mL)
Give just the number in ng/mL; leave the unit off.

What Cmax value was documented for this compound, COc1ccc(CO[C@H]2CC[C@@]3(C)C(=CC[C@H]4[C@@H]5CC[C@H](C(C)=O)[C@@]5(C)CC[C@@H]43)C2)cc1 [AEF0117, 3β-(4-methoxybenzyloxy)pregn-5-en-20-one] ? 4.6

---

assay: Plasma pharmacokinetics/toxicokinetics in dogs (oral and i.v.); type: in vivo; settings: both sexes, Beagle, dog, dogs po 36 mg/kg single, 28-day tox study
ATTRIBUTE MEASURED: Tmax

What Tmax value was documented for this compound, COc1ccc(CO[C@H]2CC[C@@]3(C)C(=CC[C@H]4[C@@H]5CC[C@H](C(C)=O)[C@@]5(C)CC[C@@H]43)C2)cc1 ? 4 h

---

test: Plasma pharmacokinetics/toxicokinetics in dogs (oral and i.v.); type: in vivo; settings: both sexes, Beagle, dog, iv, 0.7 mg/kg, dogs i.v. 0.7 mg/kg, manual linear regression of last three points, read-out: t½ (converted)
ATTRIBUTE MEASURED: half-life (h)
Give just the number in h; leave the unit off.

What half-life value was documented for this compound, COc1ccc(CO[C@H]2CC[C@@]3(C)C(=CC[C@H]4[C@@H]5CC[C@H](C(C)=O)[C@@]5(C)CC[C@@H]43)C2)cc1 ? 35.9
